# target: T1, cynomolgus Trop-2-His protein (cynomolgus, UniProt P09758 27-274 (human entry))
# T1 construct: also called cynmolgus Trop-His; Kactus Cat #TRP-CM121; not shown: His tag
# T1 chain: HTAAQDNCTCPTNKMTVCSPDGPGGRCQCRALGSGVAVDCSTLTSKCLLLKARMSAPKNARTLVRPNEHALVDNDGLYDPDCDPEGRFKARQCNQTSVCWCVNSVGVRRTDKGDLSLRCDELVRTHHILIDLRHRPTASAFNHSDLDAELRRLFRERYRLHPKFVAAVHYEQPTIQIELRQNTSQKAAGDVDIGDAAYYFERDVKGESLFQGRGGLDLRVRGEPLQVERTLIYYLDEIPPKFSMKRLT
# protocol details: ELISA, coated Trop-2 protein
value type: EC50 (nM)

INSERT INTO assay_data (binder, meas_value) VALUES
  ('5D4-2 (antibody, V domains shown) VH: QQLEESGGGLVKPEGSLTLTCKGSGFDFSGTYWMWWVRQAPGKGLEWIASIYVGSGSSTYYASWAKGRFTISSTSSTAVTLQATSLTAADTATYFCARGATNNVFMNYFNLWGPGTLVTVSS VL: FEMTQTPSSVSEPVGGTVTIKCQASEDISSNLGWYQQKPGQPPKLLIYGASTLASGVPSRFKGSGSGTEFTLTISDLEAADAATYYCQTSYYIDDGVNGFGGGTEVVVK', 0.018),
  ('66A1 (antibody, V domains shown, Rabbit-derived clone; LEM construct: VH + rabbit IgG CH1 + human IgG1 CH2-CH3) VH: QEQLKESGGGLVQPGGSLKLSCKASGFDFNNYGVSWVRQAPGKGLEWIAYIYPAFHNTYYASWVNGRFTISSHNAQNTLYLQLNSLTAADTATYFCARDAGGTDYAYNLWGPGTLVTVSS VL: DVVMTQTPASVEAAVGGTVSINCQASEDIESYLAWYQQKPGQPPKLLIYKASTLASGVSSRFKGSGSGKQFTLTISGVECADAATYYCQQVLTIGNVDNPFGGGSEVVVK', 0.014),
  ('9F7 (antibody, V domains shown, Rabbit-derived clone; LEM construct: VH + rabbit IgG CH1 + human IgG1 CH2-CH3) VH: QEQLKESGGGLVQPGGSLTLSCKASGFDFNNYGVSWVRQAPGKGLEWIGYIYPAYHNTYYATWVNGRFTISSHNAQNTLYLQLNTLTAADTATYFCARDTGSTDYNFNLWGPGTLVTVSS VL: DVVMTQTPASVEVAVGGTVTIKCQASEDIESYLAWYQQKPGQPPKLLIYEASKLASGVSSRFSGGGYGTEFTLTISGVECADAATYYCQQALTVGNVDNPFGGGSEVVVK', 0.03),
  ('10A9-2 (antibody, V domains shown) VH: QSLEESGGDLVQPGASLTLTCKASGFDLNNYAMLWVRQAPGKGLEWIGSIYISGGTTYFASWATGRFAISKTSSTTVTLQMTSLTAADTATYFCARDDGTTSYYLNLWGPGTLVTVSS VL: YDMTQTPASVSAAVGGTVTIKCQASEDIYSLLAWYQQKPGQPPKLLIYGASNLESGVPSRFKGSGSGTEYTLTISDLEADDAATYYCQQAYTIGNIDNAFGGGTEVVVK', 0.016),
  ('62E3 (antibody, V domains shown, Rabbit-derived clone; LEM construct: VH + rabbit IgG CH1 + human IgG1 CH2-CH3) VH: QEQLKESGGGLVQPGGSLKLSCKASGFDFNEYGVSWVRQAPGKGLEWIAYIYPAFHNTYYATWVNGRFTISSHNAQNTLYLQLNTLTAADTATYFCARDAGTTDYNFNLWGPGTLVTVSS VL: DVVMTQTASPVSAAVGGTVTIKCQASEDIESYLAWYQQKPGQPPKLLIYEASKLASGVSSRFSGSGYGTEFTLTISGVECADAATYYCQQALTIGNVDNPFGGGSEVVVK', 0.016);
